# Measurement Target: human Claudin-6 (CLDN6) (human) (UniProt P56747)
# Protocol Details: FACS titration of labelled mAb on OVCA429 cells (endogenous CLDN6+)
The following binders are listed with their measured EC50 values.
Note: unit µM is implicit; provide only the numeric part.

Worked cases, EC50 given:
Provide only the value of recorded EC50 for AB8 (antibody, V domains shown, full-length IgG (ExpiCHO)) VH: QVQLQQSGAELARPGASVKMSCKASGYTFTTYTMHWLKQRPGQGLEWIGYINPRSGYSNYNQKFKDKATLTADKSSNTAYMQLNTLTSEDSKVYYCSRGELGGFAYWGQGTLVTVSA VL: DVVMTQTPLSLPVSLGDQASISCRSSQSLVHSDGNTYLYWYLQKPGQSPKLLIYKVSNRFSGVPDRFSGSGSGTDFTLKISRVEAEDLGVYFCSQSTHVPYTFGGGTKLEIK
1.09

Provide only the value of recorded EC50 for AB10 (antibody, V domains shown, full-length IgG (ExpiCHO)) VH: QIQLVQSGPALKKPGETVKISCKASGYTFTDYSMHWIKQAPGKGLKWMGWISTETGEPTYADGFKGRFDFSLETSADTAYLSINNLTNEDTATYFCTRGLWSSFAYWGQGTLVTVSA VL: DVVMTQTPLSLPVSLGDQASISCRASQSLVHSNGNTYLHWFLQKPGQSPKLLIYKVSNRFSGVPDRFSGSGSRTDFTLKISRVEAEDLGVYFCSQITHVPYTFGGGTKLEIK
2.47

Provide only the value of recorded EC50 for AB1 (antibody, V domains shown, full-length IgG (ExpiCHO)) VH: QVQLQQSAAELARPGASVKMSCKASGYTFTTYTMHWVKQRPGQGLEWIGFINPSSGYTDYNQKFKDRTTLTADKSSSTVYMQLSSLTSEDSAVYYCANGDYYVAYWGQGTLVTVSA VL: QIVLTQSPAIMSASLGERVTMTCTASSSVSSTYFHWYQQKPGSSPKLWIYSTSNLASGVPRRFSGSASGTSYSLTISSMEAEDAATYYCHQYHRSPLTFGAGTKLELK
0.084

Provide only the value of recorded EC50 for AB2 (antibody, V domains shown, full-length IgG (ExpiCHO)) VH: EVKLEESGGGLVQPGGSMKLSCVASGFTFSDYWMNWVRQSPEKGLEWVAQIRLKSDNYATHYAESVKGRFTISRDDSKRSVYLQMNNLRAEDTGTYYCNDGPPSGCWGQGTTLIVSS VL: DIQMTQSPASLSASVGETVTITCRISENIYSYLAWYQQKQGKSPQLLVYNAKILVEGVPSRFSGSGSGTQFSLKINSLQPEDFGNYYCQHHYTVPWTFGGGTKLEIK
0.912

Provide only the value of recorded EC50 for AB12 (antibody, V domains shown, full-length IgG (ExpiCHO)) VH: EVKLMESGGDLVKPGGSLKLSCAASGFTFSSYAMSWVRQTPEKRLEWVASIRSGGTTYYPDSVKGRFTISRDNARNILYLRMSSLRSEDTAIYYCAKVGGNPYPMDYWGQGTSVTVSS VL: DIQMIQSPSSMFASLGDRVSLSCRASQDIGGNLDWYQQKPGGTIKLLIYSTSNLNSGVPSRFSGSGSGSDYSLTITSLESEDFADYYCLQRNAYPLTFGAGTKLELK
2.29

Next:
Provide only the value of recorded EC50 for AB17 (antibody, V domains shown) VH: QVQLQQSGAELAKPGASVKMSCKASGYTFTGYWMHWVKQRPGQGLEWLGYINPSTGYTESNQKFKDKATLTADKSSTTAYMQLRSLTPEDSAVYYCAREGITTVLVDYWGQGTTLTVSS VL: QIVLTQSPAIMSASLGERVTMTCTASSSVSSSYLHWYQQKPGSSPKLWIYSTSNLASGVPARFSGSGSGTSYSLTISSMEAEDAATYYCHQYHRSPPTFGAGTKLELK
5
